test system: LPS-stimulated human peripheral blood mononuclear cells (IL1-β); type: cell-based; conditions: Table 12; cells stimulated with 10 ng/ml LPS; LPS alone 1313 (HH2 derivatives), 1927 (1018 derivatives), 2455 (1002 and hybrid peptides) pg/ml
Ends that are not written are not given here.
quantity name: IL1β Production (pg/mL)

{"substance": "1018-K4: single substituted 1018 peptide (VRLKVAVRIWRR-NH2) [Peptide 1018-K4]", "quantity name": "IL1β Production", "readout number": 393}
{"substance": "1018-Q7: single substituted 1018 peptide (VRLIVAQRIWRR-NH2) [Peptide 1018-Q7]", "quantity name": "IL1β Production", "readout number": 1368}
{"substance": "1018-G6: single substituted 1018 peptide (VRLIVGVRIWRR-NH2) [Peptide 1018-G6]", "quantity name": "IL1β Production", "readout number": 598}
{"substance": "1002-W7: single substituted 1002 peptide (VQRWLIWWRIRK-NH2) [Peptide 1002-W7]", "quantity name": "IL1β Production", "readout number": 127}
{"substance": "1018-Q3: single substituted 1018 peptide (VRQIVAVRIWRR-NH2) [Peptide 1018-Q3]", "quantity name": "IL1β Production", "readout number": 1359}
{"substance": "1002-G4: single substituted 1002 peptide (VQRGLIVWRIRK-NH2) [Peptide 1002-G4]", "quantity name": "IL1β Production", "readout number": 723}
{"substance": "1002-Q6: single substituted 1002 peptide (VQRWLQVWRIRK-NH2) [Peptide 1002-Q6]", "quantity name": "IL1β Production", "readout number": 859}
{"substance": "1018-K10: single substituted 1018 peptide (VRLIVAVRIKRR-NH2) [Peptide 1018-K10]", "quantity name": "IL1β Production", "readout number": 310}
{"substance": "1018-Q10: single substituted 1018 peptide (VRLIVAVRIQRR-NH2) [Peptide 1018-Q10]", "quantity name": "IL1β Production", "readout number": 154}
{"substance": "1018-R4: single substituted 1018 peptide (VRLRVAVRIWRR-NH2) [Peptide 1018-R4]", "quantity name": "IL1β Production", "readout number": 615}
{"substance": "1002-L8: single substituted 1002 peptide (VQRWLIVLRIRK-NH2) [Peptide 1002-L8]", "quantity name": "IL1β Production", "readout number": 135}
{"substance": "HH2-I11: single substituted HH2 peptide (VQLRIRVAVIIA-NH2)", "quantity name": "IL1β Production", "readout number": 1402}
{"substance": "HH2-R3: single substituted HH2 peptide (VQRRIRVAVIRA-NH2)", "quantity name": "IL1β Production", "readout number": 1746}
{"substance": "HH2-A3: single substituted HH2 peptide (VQARIRVAVIRA-NH2)", "quantity name": "IL1β Production", "readout number": 1886}
{"substance": "HH2-V2: single substituted HH2 peptide (VVLRIRVAVIRA-NH2)", "quantity name": "IL1β Production", "readout number": 1267}
{"substance": "1018-W5: single substituted 1018 peptide (VRLIWAVRIWRR-NH2) [Peptide 1018-W5]", "quantity name": "IL1β Production", "readout number": 127}
